assay comment: Mouse liver microsomal stability of compound in microsomal protein, PBS buffer pH 7.4, NADPH, glucose-6-phosphate and glucose-6-phosphate dehydrogenase media. Aliquotes were taken at 5 time points and after stopping the reaction, supernatants were analyzed using HPLC coupled with a tandem mass spectrometer. The elimination constant, half-life, and intrinsic clearance are determined as results using linear regression analysis.
Format: ADME, microsomes, Microsome
measurement conditions: liver microsomes
I'd appreciate it if you could supply microsomal CLint values for the items below.

Below are worked cases with known answers.
smiles string: CNC(=O)[C@H](Nc1ccc2c(c1)CNC2)c1cc(Cl)cc(C2CC2)c1
readout value: < 10 µL/min/mg

smiles string: COCc1cc(Cl)cc([C@H](Nc2ccc3c(c2)CNC3)C(=O)NCC(F)F)c1
readout value: < 10 µL/min/mg

Okay, next one:
What microsomal CLint value was documented for this molecule, NCc1cccc(NC(=O)C[C@H](NC(=O)OCc2ccccc2)c2ccc(OCc3ccccc3)c(Br)c2)c1 ?
< 10 µL/min/mg
